Target: hPTP1B1–400 (Homo sapiens, UniProt P18031)
Sequence (P18031 1-400): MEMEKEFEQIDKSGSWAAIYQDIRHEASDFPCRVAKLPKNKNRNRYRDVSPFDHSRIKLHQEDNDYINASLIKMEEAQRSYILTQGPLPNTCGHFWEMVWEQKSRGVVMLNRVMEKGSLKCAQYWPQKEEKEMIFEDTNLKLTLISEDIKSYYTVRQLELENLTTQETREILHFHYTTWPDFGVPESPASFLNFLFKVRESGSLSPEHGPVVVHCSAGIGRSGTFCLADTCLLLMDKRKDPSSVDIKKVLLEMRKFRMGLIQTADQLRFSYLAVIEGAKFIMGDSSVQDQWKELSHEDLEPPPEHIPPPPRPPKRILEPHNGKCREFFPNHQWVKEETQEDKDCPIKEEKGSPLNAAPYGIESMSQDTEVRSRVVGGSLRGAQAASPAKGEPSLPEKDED
measure: pKi
Conceptually, pKi converts a concentration in mol/L into minus its log10.

Reference set (2 entries):
CC1(C)c2[nH]c3ccc(OC(F)F)cc3c2C[C@]2(C)[C@H]3C(=O)C=C4[C@@H]5C[C@@](C)(C(=O)O)CC[C@]5(C)CC[C@@]4(C)[C@]3(C)CC[C@@H]12	6.49
CC1(C)c2[nH]c3ccc(OC(F)(F)F)cc3c2C[C@]2(C)[C@H]3C(=O)C=C4[C@@H]5C[C@@](C)(C(=O)O)CC[C@]5(C)CC[C@@]4(C)[C@]3(C)CC[C@@H]12	6.13

Please turn your attention to the following entry.
Query block: Entry CC1(C)c2[nH]c3ccc(C(=O)O)cc3c2C[C@]2(C)[C@H]3C(=O)C=C4[C@@H]5C[C@@](C)(C(=O)O)CC[C@]5(C)CC[C@@]4(C)[C@]3(C)CC[C@@H]12 has what pKi?
Result block: 5.39

----------
Biological target: hPTP1B1–400 (Homo sapiens, UniProt P18031)
Construct: h PTP1B 1–400 IC 50 (μM ± S.D); made in house
Test: Enzymatic kinetics studies (Lineweaver–Burk, model fitting)
Assay type: biochemical
Details: hPTP1B1–400 with inhibitor
measure: Km
Kindly format the answer as number then unit.

Query block: Entry CC1(C)c2[nH]c3ccc(OC(F)F)cc3c2C[C@]2(C)[C@H]3C(=O)C=C4[C@@H]5C[C@@](C)(C(=O)O)CC[C@]5(C)CC[C@@]4(C)[C@]3(C)CC[C@@H]12 [compound 4b] has what Km?
Result block: 760 µM

Query block: Now try CC1(C)c2[nH]c3ccc(S(N)(=O)=O)cc3c2C[C@]2(C)[C@H]3C(=O)C=C4[C@@H]5C[C@@](C)(C(=O)O)CC[C@]5(C)CC[C@@]4(C)[C@]3(C)CC[C@@H]12 [compound 4g] .
Result block: 870 µM

----------
Molecular target: hPTP1B1–285 (Homo sapiens)
Construct: h PTP1B 1–285 IC 50 (μM ± S.D); made in house
Sequence (P18031 1-285): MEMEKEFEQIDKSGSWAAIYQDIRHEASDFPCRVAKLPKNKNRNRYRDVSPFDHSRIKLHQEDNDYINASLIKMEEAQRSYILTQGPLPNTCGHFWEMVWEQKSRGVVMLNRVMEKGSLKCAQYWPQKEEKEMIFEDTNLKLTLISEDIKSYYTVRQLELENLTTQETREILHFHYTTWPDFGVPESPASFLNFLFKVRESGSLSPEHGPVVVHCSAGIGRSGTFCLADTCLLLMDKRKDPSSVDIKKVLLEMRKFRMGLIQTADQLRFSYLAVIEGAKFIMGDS
Assay: PTP1B inhibition, pNPP hydrolysis, short form
Format: biochemical
Settings: pNPP substrate; ± S.D
measure: pIC50
Conceptually, pIC50 converts a concentration in mol/L into minus its log10.

Reference set (2 entries):
CC1(C)c2[nH]c3ccc(OC(F)F)cc3c2C[C@]2(C)[C@H]3C(=O)C=C4[C@@H]5C[C@@](C)(C(=O)O)CC[C@]5(C)CC[C@@]4(C)[C@]3(C)CC[C@@H]12 [compound 4b]	5.15
CC1(C)c2[nH]c3ccc(S(N)(=O)=O)cc3c2C[C@]2(C)[C@H]3C(=O)C=C4[C@@H]5C[C@@](C)(C(=O)O)CC[C@]5(C)CC[C@@]4(C)[C@]3(C)CC[C@@H]12 [compound 4g]	5.04

Please turn your attention to the following entry.
Query block: Field: pIC50 (hPTP1B1–285 (Homo sapiens)). Entry: CC1(C)c2c(cnn2-c2ccc(S(N)(=O)=O)cc2)C[C@]2(C)[C@H]3C(=O)C=C4[C@@H]5C[C@@](C)(C(=O)O)CC[C@]5(C)CC[C@@]4(C)[C@]3(C)CC[C@@H]12 [compound 5g]
Result block: 5.26

----------
Target: hPTP1B1–400 (Homo sapiens, UniProt P18031)
Construct: h PTP1B 1–400 IC 50 (μM ± S.D); made in house
Experiment: Enzymatic kinetics studies (Lineweaver–Burk, model fitting)
Assay type: biochemical
Conditions: hPTP1B1–400 with inhibitor
Parameter Vmax: see the listing below.
Write the answer as a number in mM/min, unit excluded.

Reference set (2 entries):
CC1(C)c2c(cnn2-c2ccc(S(N)(=O)=O)cc2)C[C@]2(C)[C@H]3C(=O)C=C4[C@@H]5C[C@@](C)(C(=O)O)CC[C@]5(C)CC[C@@]4(C)[C@]3(C)CC[C@@H]12 [compound 5g]	1.34
Cc1cc(-c2c3ccccc3c(Br)c3sc(C)c(C)c23)cc(C)c1O[C@H](Cc1ccccc1)C(=O)O [Ertiprotafib, reference compound]	1.71

Query block: Entry CC1(C)c2[nH]c3ccc(OC(F)(F)F)cc3c2C[C@]2(C)[C@H]3C(=O)C=C4[C@@H]5C[C@@](C)(C(=O)O)CC[C@]5(C)CC[C@@]4(C)[C@]3(C)CC[C@@H]12 [compound 4a] has what Vmax?
Result block: 1.06

----------
Parameter Km: see the listing below.
Target: hPTP1B1–400 (Homo sapiens)
Construct: h PTP1B 1–400 IC 50 (μM ± S.D); made in house
Test: Enzymatic kinetics studies (Lineweaver–Burk, model fitting)
Format: biochemical
Conditions: hPTP1B1–400 with inhibitor
Write the answer as a number in µM, unit excluded.

CC1(C)c2[nH]c3ccc(OC(F)(F)F)cc3c2C[C@]2(C)[C@H]3C(=O)C=C4[C@@H]5C[C@@](C)(C(=O)O)CC[C@]5(C)CC[C@@]4(C)[C@]3(C)CC[C@@H]12	1840

Query block: Entry Cc1cc(-c2c3ccccc3c(Br)c3sc(C)c(C)c23)cc(C)c1O[C@H](Cc1ccccc1)C(=O)O [Ertiprotafib, reference compound] has what Km?
Result block: 940

----------
Biological target: hPTP1B1–400 (Homo sapiens)
Construct: h PTP1B 1–400 IC 50 (μM ± S.D); made in house
Test: Enzymatic kinetics studies (Lineweaver–Burk, model fitting)
Assay type: biochemical
Settings: hPTP1B1–400 with inhibitor
measure: Km (µM)
Write the answer as a number in µM, unit excluded.

Reference set (2 entries):
C[C@H]1[C@H](C)CC[C@]2(C(=O)O)CC[C@]3(C)C(=CC[C@@H]4[C@@]5(C)CC[C@H](O)C(C)(C)[C@@H]5CC[C@]43C)[C@H]12	1700
CC1(C)c2c(cnn2-c2ccc(S(N)(=O)=O)cc2)C[C@]2(C)[C@H]3C(=O)C=C4[C@@H]5C[C@@](C)(C(=O)O)CC[C@]5(C)CC[C@@]4(C)[C@]3(C)CC[C@@H]12	970

Please turn your attention to the following entry.
Query block: Entry CC1(C)c2[nH]c3ccc(C(=O)O)cc3c2C[C@]2(C)[C@H]3C(=O)C=C4[C@@H]5C[C@@](C)(C(=O)O)CC[C@]5(C)CC[C@@]4(C)[C@]3(C)CC[C@@H]12 has what Km?
Result block: 990

All values here come from paper PMC12921516.
